// provenance: PubChem BioAssay (EPA / NIEHS)

TARGET ENTITY: PGR (gene 5241)
TEST DESCRIPTION: TOX21_PR_LUC_Followup_Antagonist: Tox21 HEK293 Progesterone Receptor (PR) Antagonism Luciferase Follow-Up Assay (AID 2283938);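 also: curve fitted upward as signal gain over DMSO baseline despite antagonist label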
Results filed as inconclusive are left out. Calls of active or inactive are those of the source. The calls were made as follows: active = hit-call score of the fitted dose curve at least 0.9, where 1 is the maximum; inconclusive = response in the unintended direction; inactive = score below 0.9.
RECORDED ENDPOINT: AC50

COMPOUND	TARGET ENTITY	AC50
Nc1ccc(Cl)cc1C(=O)c1ccccc1F	PGR (gene 5241)	inactive
CC(C)(c1cc(Cl)c(O)c(Cl)c1)c1cc(Cl)c(O)c(Cl)c1	PGR (gene 5241)	17.2 µM (active)
COc1ccc2c(c1OC)CN1CCc3cc4c(cc3C1C2)OCO4 (centres undefined)	PGR (gene 5241)	11.5 µM (active)
C[C@]1(O)CC[C@H]2[C@@H]3CCC4=CC(=O)CC[C@]4(C)[C@@]3(F)[C@@H](O)C[C@@]21C	PGR (gene 5241)	inactive
CC[C@]1(O)CC[C@H]2[C@@H]3CCC4=CCCC[C@@H]4[C@H]3CC[C@@]21C	PGR (gene 5241)	inactive

QUERY: Give PGR (gene 5241) AC50 for O=C1CN=C(c2ccccc2)c2cc(Cl)ccc2N1CC1CC1
RESULT: inactive

QUERY: Lab request: please report AC50 under test system PGR (gene 5241) for C[C@]12Cc3cn[nH]c3C[C@@H]1CC[C@@H]1[C@@H]2CC[C@@]2(C)[C@H]1CC[C@]2(C)O
RESULT: inactive

QUERY: What AC50 appears in the records for this compound with PGR (gene 5241)? CC1COC2(c3ccccc3Cl)c3cc(Cl)ccc3NC(=O)CN12 (centres undefined)
RESULT: inactive

QUERY: Hi! What's the reported AC50 for N#Cc1cc(I)c(O)c(I)c1 on PGR (gene 5241)?
RESULT: 29.9 µM (active)

====

Read-out: Pselectin, SELP (gene 6403)
TEST DESCRIPTION: BSK_4H_Pselectin: BioMAP Diversity Plus: 4H Assay for Pselectin Biomarker Activity (AID 2283026)
TEST PARAMETERS: primary human endothelial cells (HUVEC); actives raise or lower the signal
The source made the active and inactive calls. The calls were made as follows: active = hit-call score of the fitted dose curve at least 0.9, where 1 is the maximum; inactive = score below 0.9.
Hello, when you answer, please use one of the following outcomes: active, inactive

QUERY: So what was the verdict on O=c1c2ccccc2c(=O)c2c1cc(Cl)c1[nH]c3c([nH]c12)c(Cl)cc1c(=O)c2ccccc2c(=O)c13 in this test?
RESULT: inactive

QUERY: State the result this test recorded for CC(C)(C)C(O)C(Oc1ccc(-c2ccccc2)cc1)n1cncn1 (stereo not drawn) .
RESULT: active

QUERY: Kindly provide the recorded test outcome for the following compound: CC(C)CCCCCCCOC(=O)c1ccccc1C(=O)OCCCCCCCC(C)C
RESULT: inactive

====

TEST DESCRIPTION: ATG_MRE_CIS: Attagene CIS-FACTORIAL HepG2 Assay for human Metal Responsive Element (MRE) (AID 2282954)
TEST PARAMETERS: HepG2 MRE cis-reporter transcription, Attagene multiplex; actives raise or lower the signal
Procedure: ATG_CIS is a cell-based, multiplexed-readout assay that uses HepG2, a human liver cell line, with measurements taken at 24 hours after chemical dosing in a 24-well plate.ATG_MRE_CIS is one of 52 assay component(s) measured or calculated from the ATG_CIS assay. […] This assay endpoint, ATG_MRE_CIS, was analyzed with bidirectional fitting relative to DMSO as the negative control and baseline of activity. […]
Active and inactive are the calls of the source. The calls were made as follows: active = hit-call score of the fitted dose curve at least 0.9, where 1 is the maximum; inactive = score below 0.9.
Hi there, use one of these labels in your reply, thanks! active, inactive

Example entries begin here.
MOLECULE	CATEGORY
Oc1cc(Cl)ccc1Cl	inactive
Oc1ccc(C2(c3ccc(O)cc3)c3ccccc3-c3ccccc32)cc1	active
CCC(C)c1cc(C(C)(C)C)cc(-n2nc3ccccc3n2)c1O (stereo not given)	inactive
CC1OC(C)OC(C)O1 (stereo not given)	inactive
O=C1C(Cl)=C(Cl)C(=O)C(Cl)=C1Cl	inactive
O=[N+]([O-])c1ccc(Cl)cc1	inactive

QUERY: Name the outcome recorded for c1cc(OCC2CO2)ccc1Cc1ccc(OCC2CO2)cc1 (stereo not given) in the assay.
RESULT: active

QUERY: Which outcome was entered for the molecule O=C(NCNC(=O)NC1C(=O)NC(=O)N1CO)NC1C(=O)NC(=O)N1CO (stereo not given) in this test?
RESULT: active

QUERY: Which outcome was assigned to CN1C(=O)CCS(=O)(=O)C1c1ccc(Cl)cc1 (stereo not given) in this test?
RESULT: inactive

QUERY: How was Nc1ccc(-c2ccc(N)c(N)c2)cc1N classified in this test?
RESULT: inactive
